# target-under-test: TDO2 (Homo sapiens, UniProt P48775)
# Construct: decreased levels of NFK in SW48 cells (high TDO expressing cells)
# Sequence (P48775 whole entry): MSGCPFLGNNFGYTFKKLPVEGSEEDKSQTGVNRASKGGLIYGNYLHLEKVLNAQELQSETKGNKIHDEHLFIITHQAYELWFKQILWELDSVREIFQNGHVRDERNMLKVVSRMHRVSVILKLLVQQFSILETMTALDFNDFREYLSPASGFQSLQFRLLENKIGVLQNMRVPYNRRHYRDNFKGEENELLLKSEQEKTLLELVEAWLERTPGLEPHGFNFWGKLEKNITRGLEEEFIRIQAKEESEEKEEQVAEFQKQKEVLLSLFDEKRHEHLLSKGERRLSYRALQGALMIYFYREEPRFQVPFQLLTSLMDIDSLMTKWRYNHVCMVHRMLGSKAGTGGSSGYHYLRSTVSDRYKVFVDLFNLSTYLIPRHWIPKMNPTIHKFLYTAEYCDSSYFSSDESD
# test-protocol: TDO2 cell assay (NFK GreenScreen, SW48 cells)
# Assay type: cell-based
# study-conditions: SW48 cells (high TDO expressing), 200 uM tryptophan, 24 hours; Table 3; read-out: TDO2 Cell Fluor EC50
measurement-type: EC50 (nM)

Observe how each entry below is paired with its result.
[
  {
    "compound": "Cc1cc2c(cn1)[C@H](O)[C@H]([C@@H]1c3ccccc3-c3cncn31)C2 [Example 59b]",
    "measurement-type": "EC50",
    "reported-result": 820
  },
  {
    "compound": "OC1c2ccccc2CC1C1c2ccccc2-c2cncn21 (single isomer, unassigned) [Example 19f]",
    "measurement-type": "EC50",
    "reported-result": 4400
  }
]

1 = CC1(C)CCC(C2c3ccccc3-c3cncn32)C1O (single isomer, unassigned) [Example 23e]
2 = CN(C)C(=O)c1ccc2c(c1)CCC(C1c3ccccc3-c3cncn31)C2O (single isomer, unassigned) [Example 98g]
3 = CCS(=O)(=O)N1CC[C@@H]([C@H]2c3ccccc3-c3cncn32)[C@H](O)C1 [Example 16a]
4 = O[C@H]1c2ccncc2CC[C@H]1[C@@H]1c2ccccc2-c2cncn21 (single isomer, unassigned) [Example 08c]
5 = OC1CCCCCC1C1c2ccccc2-c2cncn21 (single isomer, unassigned) [Example 115c]
// sort entries: EC50, high to low Answer by naming the labels in the order asked.
1, 4, 2, 3, 5
(1: 17000 nM, 4: 5200 nM, 2: 860 nM, 3: 110 nM, 5: 50 nM)

a = OC1c2cccnc2CCC1C1c2ccccc2-c2cncn21 (single isomer, unassigned) [Example 31c]
b = O=S(=O)(C1CC1)N1CC[C@@H]([C@@H]2c3ccccc3-c3cncn32)[C@H](O)C1 (single isomer, unassigned) [Example 81a]
Could you kindly indicate whether a or b has the higher EC50 value? Let me know the label of the one you choose.
a

* * *

# target-under-test: TDO2 (Homo sapiens)
# Construct: decreased levels of NFK in SW48 cells (high TDO expressing cells)
# test-protocol: TDO2 cell assay (NFK GreenScreen, SW48 cells)
# Type: cell-based
# study-conditions: SW48 cells (high TDO expressing), 200 uM tryptophan, 24 hours; Table 3; read-out: TDO2 Cell Fluor EC50
pEC50: −log10 of the molar value.
measurement-type: pEC50

[
  {
    "compound": "O[C@@H]1c2ccccc2CC[C@H]1[C@@H]1c2ccccc2-c2cncn21 (single isomer, unassigned) [Example 102h]",
    "measurement-type": "pEC50",
    "reported-result": 5.08
  }
]

A = OC1c2cnncc2CCC1C1c2ccccc2-c2cncn21 (single isomer, unassigned) [Example 112g]
B = OC1(C2c3ccccc3-c3cncn32)CCCOC1 (single isomer, unassigned) [Example 144c]
Problem: Given the entries A and B , determine which has the lower reported pEC50. Let me know the label of the one you choose.
B
(B: 5.68, A: 6.57)

* * *

# target-under-test: TDO2 (Homo sapiens, UniProt P48775)
# Construct: decreased levels of NFK in SW48 cells (high TDO expressing cells)
# test-protocol: TDO2 cell assay (NFK GreenScreen, SW48 cells)
# Assay type: cell-based
# study-conditions: SW48 cells (high TDO expressing), 200 uM tryptophan, 24 hours; Table 3; read-out: TDO2 Cell Fluor EC50
pEC50: −log10 of the molar value.
measurement-type: pEC50

Would you please look over these solved cases?
[
  {
    "molecule": "OC1c2cnnn2CCC1C1c2ccccc2-c2cncn21 (single isomer, unassigned) [Example 139b]",
    "reported-result": 6.00
  },
  {
    "molecule": "CC1(C)C[C@@H](O)[C@H]1[C@H]1c2ccccc2-c2cncn21 (single isomer, unassigned) [Example 22g]",
    "reported-result": 6.11
  },
  {
    "molecule": "CS(=O)(=O)c1ccc2c(c1)CCC(C1c3ccccc3-c3cncn31)C2O (single isomer, unassigned) [Example 36a]",
    "reported-result": 5.89
  },
  {
    "molecule": "CC1(C)CCCCC1(O)C1c2ccccc2-c2cncn21 (single isomer, unassigned) [Example 164b]",
    "reported-result": 5.12
  },
  {
    "molecule": "CS(=O)(=O)N1CCC2(CC1)CC(C1c3ccccc3-c3cncn31)C2O (single isomer, unassigned) [Example 179f]",
    "reported-result": 6.92
  },
  {
    "molecule": "OC1C(C2c3ccc(F)cc3-c3cncn32)CC12CCOCC2 (single isomer, unassigned) [Example 109e]",
    "reported-result": 5.02
  },
  {
    "molecule": "OC1c2cnncc2CCC1C1c2ccccc2-c2cncn21 (single isomer, unassigned) [Example 112b]",
    "reported-result": 6.62
  },
  {
    "molecule": "CS(=O)(=O)N1CCC(C2c3ccccc3-c3cncn32)C(O)C1 (single isomer, unassigned) [Example 79b]",
    "reported-result": 5.28
  }
]

P = OC1c2nonc2CCC1C1c2ccccc2-c2cncn21 (single isomer, unassigned) [Example 163g]
Q = OC1CC2(CC2)C1C1c2ccccc2-c2cncn21 (single isomer, unassigned) [Example 72e]
Returns: the label, P or Q , whose recorded pEC50 is the lower number. Please indicate the selected item by its label.
P
